Catalogue of OD 490/630 nm readings, one per entry.
System: T1, Ala mutant having 3-amino acid substitution, SEQ ID NO: 45
T1 peptide: EENAAAQWMQDEMEIGY
Method: ELISA, coated peptide
Measurement kind: OD 490/630 nm

[
  {
    "Binder": "G9 (antibody, V domains shown, Chicken variable regions in a mouse chimeric antibody (IgG1); also called anti-PAD4 antibody G9) VH: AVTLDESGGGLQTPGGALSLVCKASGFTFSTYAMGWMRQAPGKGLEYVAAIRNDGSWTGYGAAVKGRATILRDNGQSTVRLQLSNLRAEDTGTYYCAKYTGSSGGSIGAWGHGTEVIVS VL: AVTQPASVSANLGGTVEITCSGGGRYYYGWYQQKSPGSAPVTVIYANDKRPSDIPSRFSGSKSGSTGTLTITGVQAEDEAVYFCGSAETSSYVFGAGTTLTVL",
    "Measurement kind": "OD 490/630 nm",
    "Numeric value": 0.019
  },
  {
    "Binder": "G6 (antibody, V domains shown, Chicken variable regions in a mouse chimeric antibody (IgG1); also called anti-PAD4 antibody G6) VH: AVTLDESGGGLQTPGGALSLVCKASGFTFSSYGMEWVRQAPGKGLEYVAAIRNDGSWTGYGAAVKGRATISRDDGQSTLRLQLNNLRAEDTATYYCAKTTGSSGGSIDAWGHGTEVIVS VL: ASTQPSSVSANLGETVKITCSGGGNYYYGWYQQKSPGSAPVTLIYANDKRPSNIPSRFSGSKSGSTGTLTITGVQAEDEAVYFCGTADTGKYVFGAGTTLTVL",
    "Measurement kind": "OD 490/630 nm",
    "Numeric value": 0.018
  },
  {
    "Binder": "G8 (antibody, V domains shown, Chicken variable regions in a mouse chimeric antibody (IgG1); also called anti-PAD4 antibody G8) VH: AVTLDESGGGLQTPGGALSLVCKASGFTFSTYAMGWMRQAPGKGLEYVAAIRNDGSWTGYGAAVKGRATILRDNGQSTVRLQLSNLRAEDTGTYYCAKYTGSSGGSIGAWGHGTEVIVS VL: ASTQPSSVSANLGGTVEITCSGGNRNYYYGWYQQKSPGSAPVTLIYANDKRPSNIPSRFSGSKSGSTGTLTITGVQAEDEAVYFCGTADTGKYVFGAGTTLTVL",
    "Measurement kind": "OD 490/630 nm",
    "Numeric value": 0.065
  }
]
